target: SARS-CoV-2 full length spike protein, D614G mutant, expressed on CHO cells (SARS-CoV-2, UniProt P0DTC2 14-1273)
measured.property: median fluorescence fold over isotype control (fold over isotype)
# unit: fold over isotype | format: bare number

Give the measured median fluorescence fold over isotype control for antibody 402 (antibody, V domains shown) VH: QVQLVQSGAEVKKPGASVKVSCKVSGYTLTELSMHWVRQAPGKGLEWMGGFDPEDVETIYAQKFQGRVTMTEDTSTDTAYMELSSLRSEDTAVYYCATGVAVVGTSHSYYYYYGMDVWGQGTTVTVSS VL: DIQMTQSPSSLSASVGDRVTITCRASQGISNYLAWYQQKPGKVPKLLIYAASTLQSGVPSRFSGSGSGTDFTLTISSLQPEDVATYYCQKYNSAPFTFGPGTKVDIK
67.8
